Biological target: UniProt:P51677
Assay: Eotaxin-induced chemotaxis of CCR-3 transfectant cells (CCR3/U937)
Format: cell-based
Set-up: expressed in transfected cells; host or cells: U937
Details: test compound 0.1 µg/ml; eotaxin 1 x 10^-9 M; CCR3/U937 transfectants; 37 °C, 1 hour
Procedure: The inhibitory activity of the compounds against eotaxin-induced chemotaxis was determined by measuring the inhibition of migration of CCR-3 transfectant cells (CCR3/U937), using a minor modification of the method described by Ohashi, H. et al., Int Arch Allergy Immunol. […] The chemotaxis assay was performed in a 24-well culture plate. […] After incubation, migrated cells in lower wells were diluted and counted by particle size distribution analyzer (CDP-500, Sysmex Co., Ltd.).
property.name: Chemotaxis Assay 0.1 µg/ml (inhibition %)

CCC(CC)C[N+](CC)(CCCNC(=O)Nc1ccc(Br)cc1)CCc1cccc(Cl)c1.[I-] (centres unmarked) [compound 379] : 80
CCC(CC)C[N+](CC)(CCCNC(=O)Nc1ccccc1)CCc1cccc(Cl)c1.[I-] (centres unmarked) [compound 428] : 93
C=C(C)C[N+](CC)(CCCNC(=O)Nc1ccc(Cl)c(Cl)c1)CCc1ccccc1.[I-] (centres unmarked) [compound 368] : 88
CCC(CC)C[N+](CC)(CCCNC(=O)Nc1ccccc1)CCc1ccc(Cl)c(Cl)c1.[I-] (centres unmarked) [compound 430] : 76
CC[N+](CCCNC(=O)Nc1ccccc1)(CCOCCOC)CCc1cccc(Cl)c1.[I-] (centres unmarked) [compound 413] : 95
CC[N+](CCCNC(=O)Nc1ccccc1)(CCc1ccc(Cl)cc1)CC1CCC1.[I-] (centres unmarked) [compound 417] : 59
CC[N+](CC#N)(CCCNC(=O)Nc1ccc(Br)cc1)CCc1cccc(Cl)c1.[I-] (centres unmarked) [compound 372] : 76
CC[N+](CCF)(CCCNC(=O)Nc1ccccc1)CCc1ccc(Cl)cc1Cl.[I-] (centres unmarked) [compound 433] : 76

###

biological target: CCR-3 (Homo sapiens, UniProt P51677); assay: Eotaxin-induced chemotaxis of CCR-3 transfectant cells (CCR3/U937); assay type: cell-based; design: expressed in transfected cells; host or cells: U937; conditions: test compound 0.1 µg/ml; eotaxin 1 x 10^-9 M; CCR3/U937 transfectants; 37 °C, 1 hour
Sequence (P51677 whole entry): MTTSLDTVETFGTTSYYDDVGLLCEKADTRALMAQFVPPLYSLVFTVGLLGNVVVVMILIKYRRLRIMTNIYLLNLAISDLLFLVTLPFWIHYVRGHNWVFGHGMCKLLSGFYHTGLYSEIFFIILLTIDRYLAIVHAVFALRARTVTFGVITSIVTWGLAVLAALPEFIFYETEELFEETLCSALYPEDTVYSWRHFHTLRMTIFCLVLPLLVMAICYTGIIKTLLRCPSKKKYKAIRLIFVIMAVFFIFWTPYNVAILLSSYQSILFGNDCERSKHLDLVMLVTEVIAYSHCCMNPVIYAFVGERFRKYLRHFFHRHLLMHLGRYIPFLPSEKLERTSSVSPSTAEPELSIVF
property.name: Chemotaxis Assay 0.1 µg/ml (inhibition %)

Below, 3 molecules whose answers are already recorded.
C=C(C)C[N+](CC)(CCCNC(=O)Nc1ccccc1)CCc1ccc(Cl)cc1.[I-] (centres unmarked) [compound 422] : 42
CCC(CC)C[N+](CC)(CCCNC(=O)Nc1ccc(OC)cc1)CCc1ccc(Cl)c(Cl)c1.[I-] (centres unmarked) [compound 449] : 96
CC[N+](CCCNC(=O)Nc1ccc(C(F)(F)F)cc1)(CCOCCOC)CCc1ccc(Cl)cc1.[I-] (centres unmarked) [compound 386] : 43

(1) CC[N+](CCCNC(=O)Nc1ccccc1)(CCc1ccc(Cl)c(Cl)c1)CCC(C)C.[I-] (centres unmarked) [compound 408]
(2) CC[N+](CCCNC(=O)Nc1ccc(OC)cc1)(CCOCCOC)CCc1cccc(F)c1.[I-] (centres unmarked) [compound 439]
Q. # return whichever of 1 and 2 has the smaller Chemotaxis Assay 0.1 µg/ml (inhibition %) Please reply using the label of the selected record.
A. 2

###

target: CCR-3 (Homo sapiens, UniProt P51677); assay: Calcium mobilization assay (inhibition of eotaxin-induced intracellular calcium mobilization in CCR3/HEK293 cells); type: cell-based; set-up: expressed in transfected cells; conditions: 1.25 µg/ml test compound; eotaxin 10 nM; CCR3/HEK293 cells (Table 2b)
property.name: Ca^2+ mobilization 1.25 µg/ml (inhibition %)

C=C(C)C[N+](CC)(CCCNC(=O)Nc1ccc(C#N)cc1)CCc1cccc(Cl)c1.[I-] (stereo not shown) : 58
C=C(C)C[N+](CC)(CCCNC(=O)Nc1ccc(Cl)c(Cl)c1)CCc1cccc(Cl)c1.[I-] (stereo not shown) : 65
CC[N+](CCCNC(=O)Nc1ccc(OC)cc1)(CCc1ccc(Cl)c(Cl)c1)CC1CCC1.[I-] (stereo not shown) : 69
CC[N+](CCCNC(=O)Nc1ccc(OC)cc1)(CCc1ccc(Cl)c(Cl)c1)CC(N)=O.[I-] (stereo not shown) : 64
CC[N+](CCCNC(=O)Nc1ccc(OC)cc1)(CCc1ccc(Cl)cc1)CC1CCC1.[I-] (stereo not shown) : 62
CC[N+](CCCNC(=O)Nc1ccc(Cl)c(Cl)c1)(CCc1ccc(Cl)cc1Cl)CC1CCC1.[I-] (stereo not shown) : 49
CC[N+](CCCNC(=O)Nc1ccc(Cl)c(Cl)c1)(CCOCCOC)CCc1ccc(Cl)c(Cl)c1.[I-] (stereo not shown) : 63

###

target: UniProtKB P51677; assay: Eotaxin-induced chemotaxis of CCR-3 transfectant cells (CCR3/U937); type: cell-based; design: expressed in transfected cells; host or cells: U937; settings: 10 µM test compound; eotaxin 1 x 10^-9 M; CCR3/U937 cells (Table 3c)
property.name: Chemotaxis Assay 10 µM (inhibition %)

CCCC[N+](CC)(CCCNC(=O)Nc1ccc(Br)cc1)CCc1ccc(Cl)cc1.[I-] (centres unmarked) : 100
CC[N+](CC)(CCCNC(=O)Nc1ccccc1)CCc1ccccc1Cl.[I-] : 100
C=CC[N+](CC)(CCCNC(=O)Nc1ccccc1)CCc1ccc(Cl)cc1.[I-] (centres unmarked) : 100
CC[N+](CCCNC(=O)Nc1ccc(Br)cc1)(CCCC(=O)OC)C(C)c1ccccc1.[I-] (centres unmarked) [compound 313] : 86
CC[N+](CCCNC(=O)Nc1ccccc1)(CCc1cccc(Cl)c1)Cc1ccccc1.[I-] (centres unmarked) : 100
CC[N+](CC)(CCCNC(=O)Nc1ccccc1)CCc1ccc(F)cc1.[I-] : 100
CC[N+](CC)(CCCNC(=O)Nc1ccccc1)C1CCc2ccccc21.[I-] (centres unmarked) : 93
CC[N+](CCCNC(=O)Nc1ccccc1)(CCc1ccc(Cl)cc1)Cc1ccc(C#N)cc1.[I-] (centres unmarked) : 100

###

molecular target: CCR-3 (Homo sapiens, UniProt P51677); assay: Eotaxin-induced chemotaxis of CCR-3 transfectant cells (CCR3/U937); type: cell-based; design: expressed in transfected cells; host or cells: U937; settings: 10 µM test compound; eotaxin 1 x 10^-9 M; CCR3/U937 cells (Table 3a)
property.name: Chemotaxis Assay 10 µM (inhibition %)

O=C(O)CCCN(CCCNC(=O)Nc1ccc(Br)cc1)Cc1ccccc1 [Compound 67] : 100
O=C(O)CCCN(CCCNC(=O)Nc1ccccc1Br)C1CCCc2ccccc21 (stereo not drawn) [Compound 190] : 90
CCCCN(CCCNC(=O)Nc1ccccc1)CCc1ccc(Cl)cc1 [Compound 14] : 97
CC(=O)OCCCCN(CCCNC(=O)Nc1ccc(Br)cc1)C1CCCc2ccccc21 (stereo not drawn) [Compound 202] : 100
O=C(NCCCN(CCc1ccc(Cl)cc1)CC1CCCCC1)Nc1ccccc1 [Compound 240] : 86
Cc1cc(Br)ccc1NC(=O)NCCCN(CCCC(=O)O)C1CCCc2ccccc21 (stereo not drawn) [Compound 201] : 100
O=C(O)CCCN(CCCNC(=O)Nc1ccc(Oc2ccccc2)cc1)C1CCCc2ccccc21 (stereo not drawn) [Compound 89] : 89
CC(c1ccc([N+](=O)[O-])cc1)N(CCCNC(=O)Nc1ccc(Br)cc1)CCCC(=O)O (stereo not drawn) [Compound 259] : 100
O=C(NCCCN(CCCO)CCc1ccc(Cl)cc1)Nc1ccccc1 [Compound 219] : 86

###

Molecular target: CCR-3 (Homo sapiens, UniProt P51677)
Assay: Eotaxin-induced chemotaxis of CCR-3 transfectant cells (CCR3/U937)
Assay type: cell-based
Set-up: expressed in transfected cells; host or cells: U937
Conditions: test compound 0.1 µg/ml; eotaxin 1 x 10^-9 M; CCR3/U937 transfectants; 37 °C, 1 hour
Protocol: The inhibitory activity of the compounds against eotaxin-induced chemotaxis was determined by measuring the inhibition of migration of CCR-3 transfectant cells (CCR3/U937), using a minor modification of the method described by Ohashi, H. et al., Int Arch Allergy Immunol. […] The chemotaxis assay was performed in a 24-well culture plate. […] After incubation, migrated cells in lower wells were diluted and counted by particle size distribution analyzer (CDP-500, Sysmex Co., Ltd.).
property.name: Chemotaxis Assay 0.1 µg/ml (inhibition %)

CC[N+](CCF)(CCCNC(=O)Nc1ccc(Br)cc1)CCc1cccc(F)c1.[I-] (centres unmarked) : 68
CCC(CC)C[N+](CC)(CCCNC(=O)Nc1ccc(C#N)cc1)CCc1cccc(Cl)c1.[I-] (centres unmarked) : 71
CC[N+](CCF)(CCCNC(=O)Nc1ccc(Br)cc1)CCc1cccc(Cl)c1.[I-] (centres unmarked) : 98
CC[N+](CCCNC(=O)Nc1ccc(Br)cc1)(CCc1ccc(Cl)c(Cl)c1)CC1CCC1.[I-] (centres unmarked) : 46
CC[N+](CCCNC(=O)Nc1ccc(Cl)c(Cl)c1)(CCOCCOC)CCc1ccccc1.[I-] (centres unmarked) : 49
CCC(CC)C[N+](CC)(CCCNC(=O)Nc1ccc(OC)cc1)CCc1cccc(F)c1.[I-] (centres unmarked) : 35

(A) CC[N+](CCCNC(=O)Nc1ccccc1)(CCOCCOC)CCc1cccc(OC)c1.[I-] (centres unmarked)
(B) C=C(C)C[N+](CC)(CCCNC(=O)Nc1ccccc1)CCc1ccc(Cl)cc1Cl.[I-] (centres unmarked)
Q. Please tell me which of the two, A or B , has the higher reported Chemotaxis Assay 0.1 µg/ml (inhibition %) value. Please reply using the label of the selected record.
A. B
